test-target: Virion infectivity factor (Human immunodeficiency virus type 1 group M subtype B (isolate BH10)) + Virion infectivity factor (Human immunodeficiency virus type 1 group M subtype B (isolate BRU/LAI)) + Virion infectivity factor (Human immunodeficiency virus type 1 group M subtype B (isolate PCV12)) + Virion infectivity factor (Human immunodeficiency virus type 1 group M subtype B (isolate HXB2)) + DNA dC->dU-editing enzyme APOBEC-3G (Homo sapiens) (UniProt P69720+P69721+P69722+P69723+Q9HC16)
measurement-notes: inhibitors of Vif binding to APOBEC3G peptide, primary screen, biochemical, TR-FRET, GST-Vif 1-94, biotin-A3G peptide, dose response retest (AID 1117319);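 also: Vif residues 1-94 fused to GST binding biotinylated APOBEC3G peptide 110-148; 0% = full assay without inhibitor and 100% = GST in place of GST-Vif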
condition-context: stronger effect = higher value
The whole screen tested about 260,000 compounds, of which about 1,500 (0.58%) were called active. Another 5% or so got no clear call; they are omitted. These entries were drawn from the full list. Measured potencies and affinities stand elsewhere.
readout-label: inhibition (%)
Field: numeric (%). Do not append units.

Recorded results for 5 compounds are shown here.
* O=[N+]([O-])c1ccc(NN=Cc2ccccc2O)nc1 | 7.07
* CCOC(=O)C1=C(C)N=C2SC(C(=O)OC)=CC(=O)N2C1c1cccc(OC)c1 (stereo unspecified) | 0.81
* Cc1nccn1CC(=O)N/N=C/c1cccc(O)c1 | 2.96
* COc1ccc(/C=N/NC(=O)Cn2ccnc2C)cc1OC | -2.05
* C=CCSc1nc2c(c(=O)[nH]c(=O)n2C)n1Cc1ccc(C)cc1 | 1.91

# ---- query compound ----
In: Consider the compound COc1ccccc1/C=C(/CC(=O)NCc1ccc(F)cc1)c1nc2ccccc2s1 and give its measured inhibition.
Out: -7

###

test-target: Virion infectivity factor (Human immunodeficiency virus type 1 group M subtype B (isolate BH10)) + Virion infectivity factor (Human immunodeficiency virus type 1 group M subtype B (isolate BRU/LAI)) + Virion infectivity factor (Human immunodeficiency virus type 1 group M subtype B (isolate PCV12)) + Virion infectivity factor (Human immunodeficiency virus type 1 group M subtype B (isolate HXB2)) + DNA dC->dU-editing enzyme APOBEC-3G (Homo sapiens) (UniProt P69720+P69721+P69722+P69723+Q9HC16)
measurement-notes: inhibitors of Vif binding to APOBEC3G peptide, primary screen, biochemical, TR-FRET, GST-Vif 1-94, biotin-A3G peptide, dose response retest (AID 1117319);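 also: Vif residues 1-94 fused to GST binding biotinylated APOBEC3G peptide 110-148; 0% = full assay without inhibitor and 100% = GST in place of GST-Vif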
condition-context: stronger effect = higher value
Hit rate of the full screen: of about 260,000 compounds, about 1,500 (0.58%) were called active. Another 5% or so got no clear call; they are omitted. These entries were drawn from the full list. Potency and affinity values are given separately.
Below, each of the molecules is paired with its reported inhibition value.
Give the value, in units of %, as a plain number.

* O=C(O)c1cccc(-n2cccc2C=C2C(=O)c3ccccc3C2=O)c1 | 29.9
* O=C(c1cc([N+](=O)[O-])ccc1N1CCOCC1)N1CCN(c2ccc([N+](=O)[O-])cc2)CC1 | 11.3
* Cc1ccccc1NS(=O)(=O)c1cc(C(=O)NCCSC2CCCCC2)ccc1C | 4.25
* CNC(=S)NNc1nncc2ccccc12 | -3.6
* COc1cccc(/C=C2\CCCCC2=O)c1 | 8.63

In: Endpoint output: inhibition of Cc1cc(C)cc(NC(=O)CN(C)CC(=O)N(CC(C)C)c2c(N)n(CC(C)C)c(=O)[nH]c2=O)c1 . Value?
Out: 1.78

In: Dear colleague, I am looking for the recorded inhibition of the following molecule: CC(=O)NCCc1ccc(C(=O)COC(=O)c2cccn2C)cc1
Out: -0.53

In: Please give the measured inhibition for this molecule: Cc1ccc(CN2CC(C(=O)Nc3cccc(S(=O)(=O)N4CCCCC4)c3)CC2=O)cc1 (stereo not given)
Out: 14.4

In: Suppose we examine the molecule CN1CC(=O)N(CC(=O)Nc2ccc(N3CCOCC3)cc2)C1=O ; what inhibition value has been reported?
Out: -19.5

In: Data request, read-out inhibition, for N#C/C(=C(/O)COc1ccc(Cl)cc1)c1nc2ccccc2s1
Out: 5.6

Attribution: PubChem BioAssay AID1117319
